Test target: T1, human CD98, endogenously expressed on Molt-4 human acute lymphoblastic leukemia cells (human)
T1 chain: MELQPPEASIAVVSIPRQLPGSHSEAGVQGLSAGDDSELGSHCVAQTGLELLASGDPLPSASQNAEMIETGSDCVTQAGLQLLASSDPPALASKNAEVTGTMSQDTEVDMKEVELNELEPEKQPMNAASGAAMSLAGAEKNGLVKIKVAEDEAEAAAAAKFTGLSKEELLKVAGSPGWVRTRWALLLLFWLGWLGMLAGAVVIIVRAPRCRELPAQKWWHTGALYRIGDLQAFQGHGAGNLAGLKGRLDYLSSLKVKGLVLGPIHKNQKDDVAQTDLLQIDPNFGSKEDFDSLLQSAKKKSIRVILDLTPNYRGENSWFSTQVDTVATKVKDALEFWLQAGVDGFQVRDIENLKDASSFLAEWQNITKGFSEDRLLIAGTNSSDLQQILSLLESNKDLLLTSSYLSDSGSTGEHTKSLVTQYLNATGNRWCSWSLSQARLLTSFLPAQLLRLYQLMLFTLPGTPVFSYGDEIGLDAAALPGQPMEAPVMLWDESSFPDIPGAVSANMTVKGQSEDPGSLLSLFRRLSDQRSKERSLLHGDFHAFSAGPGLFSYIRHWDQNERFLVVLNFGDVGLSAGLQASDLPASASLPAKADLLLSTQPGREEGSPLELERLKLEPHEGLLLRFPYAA
Assay overview: cell-based or functional assay
Assay metric: Molt4 IC50 (nM), 50% inhibition of cell proliferation, 72 h, ATPlite
The figure you give is taken to be in nM; do not add the unit.

## Input Bench note: what Molt4 IC50 (nM), 50% inhibition of cell proliferation, 72 h, ATPlite did CD98 (CL-huAb110)-ZZ (antibody, human IgG1, kappa, L234A L235A, V domains shown, synthon ZZ on reduced cysteine (see heavy chain); Bcl-xL inhibitor synthon ZZ on cysteines freed by TCEP reduction (Method G); DAR 1.0 by MS for the whole ADC) VH: EVQLVQSGAEVKKPGASVKVSCKASGFTFSDYTMAWVRQAPGQGLEWVATIIYDARGTYYRDAVKGRFTITRDNSTSTLYLELSSLRSEDTAVYYCARQSDDTYYYWGYFDYWGQGTMVTVSS VL: DIVMTQTPLSLPVTPGEPASINCKSSQSLLFSGNQKNYLAWYLQKPGQSPQLLIYWASTRQSGVPDRFSGSGSGTDFTLKISRVEAEDVGIYYCQQYYSSPYTFGQGTKLEIKR show?
## Output 0.252

## Input Item CD98 (CL-huAb110)-YG (antibody, human IgG1, kappa, L234A L235A, V domains shown, synthon YG on reduced cysteine (see heavy chain); Bcl-xL inhibitor synthon YG on cysteines freed by TCEP reduction (Method E); DAR 2.8 by MS for the whole ADC) VH: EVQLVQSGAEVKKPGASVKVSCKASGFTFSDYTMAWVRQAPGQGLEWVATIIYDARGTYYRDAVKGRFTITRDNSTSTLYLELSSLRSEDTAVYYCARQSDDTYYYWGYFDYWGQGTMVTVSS VL: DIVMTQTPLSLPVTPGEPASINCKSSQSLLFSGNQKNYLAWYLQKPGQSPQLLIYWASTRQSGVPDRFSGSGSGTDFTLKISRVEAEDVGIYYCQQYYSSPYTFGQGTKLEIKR has what recorded Molt4 IC50 (nM), 50% inhibition of cell proliferation, 72 h, ATPlite?
## Output 0.493

## Input What measured Molt4 IC50 (nM), 50% inhibition of cell proliferation, 72 h, ATPlite goes with CD98 (CL-huAb104)-SE (antibody, human IgG1, kappa, L234A L235A, V domains shown, synthon SE on reduced cysteine (see heavy chain); Bcl-xL inhibitor synthon SE on cysteines freed by TCEP reduction (Method A); DAR 2.4 by MS for the whole ADC) VH: EVQLVESGGGLVQPGGSLRLSCATSGFTFIDYYMSWVRQAPGKGLEWLGFIRNKAYGYTTEYSASVKGRFTISRDNSKSILYLQMNSLKTEDTAVYYCTRDRPAWFVYWGQGTLVTVSS VL: DIVMTQTPLSLPVTPGEPASISCKSSQSLLYSSNQKNYLAWYLQKPGQSPQLLIYWASTRESGVPDRFSGSGSGTDFTLKISRVEAEDVGVYYCQQYYSYPYTFGGGTKVEIKR ?
## Output 0.149
